# TARGET: prostaglandin E2 receptor
# PROCEDURE TEXT: inhibition of [^3 H]-PGE2 receptor binding in rat uterus membrane fraction
# PROTOCOL CONDITIONS: Table I; 5 nM [^3 H]-PGE2, rat uterus crude membrane fraction, pH 6.0, 1 hour at room temperature; read-out: IC50, inhibitory effects of PGE2 receptor binding in rat
Label 1 (yes) when IC50 < 400 nM; otherwise 0 (no).

MOLECULE: Cc1ccc(S(=O)(=O)NCC2C3CCC(C3)C2/C=C\CCCC(=O)O)cc1 (stereo not drawn)
TARGET: prostaglandin E2 receptor
CLASS: 0 (no)

MOLECULE: Cc1ccc(S(=O)(=O)N[C@H]2CCC[C@@H]2C/C=C\CCCC(=O)O)cc1 (relative stereo)
TARGET: prostaglandin E2 receptor
CLASS: 0 (no)

MOLECULE: O=C(O)CCC/C=C\[C@@H]1CCC[C@H](NS(=O)(=O)c2ccc(Br)cc2)C1 (relative stereo)
TARGET: prostaglandin E2 receptor
CLASS: 0 (no)

MOLECULE: O=C(O)CCC/C=C\C1CCCCC1CNS(=O)(=O)c1ccc(Br)cc1 (stereo not drawn)
TARGET: prostaglandin E2 receptor
CLASS: 0 (no)

MOLECULE: CC1(C)[C@H]2C[C@H](NS(=O)(=O)CCc3ccccc3)[C@@H](C/C=C\CCCC(=O)O)[C@@H]1C2
TARGET: prostaglandin E2 receptor
CLASS: 1 (yes)

MOLECULE: O=C(O)CCCC=CC1C2CCC(C2)C1CNS(=O)(=O)c1ccc(Br)cc1 (stereo not drawn) [5 (i)]
TARGET: prostaglandin E2 receptor
CLASS: 0 (no)

MOLECULE: CC1(C)[C@H]2C[C@H](NS(=O)(=O)c3ccccc3)[C@@H](C/C=C\CCCC(=O)O)[C@@H]1C2
TARGET: prostaglandin E2 receptor
CLASS: 0 (no)

MOLECULE: CCCCCCS(=O)(=O)N[C@H]1C[C@H]2C[C@@H]([C@@H]1C/C=C\CCCC(=O)O)C2(C)C
TARGET: prostaglandin E2 receptor
CLASS: 1 (yes)

MOLECULE: O=C(O)CCC/C=C\[C@@H]1[C@H]2CC[C@H](C2)[C@H]1CNS(=O)(=O)c1ccc(Br)cc1
TARGET: prostaglandin E2 receptor
CLASS: 0 (no)

MOLECULE: Cc1ccc(S(=O)(=O)NCC2C3CCC(C3)C2C=CCCCC(=O)O)cc1 (stereo not drawn)
TARGET: prostaglandin E2 receptor
CLASS: 0 (no)

MOLECULE: O=C(O)CCCC=CC1C2C=CC(C2)C1CNS(=O)(=O)c1ccc(Br)cc1 (stereo not drawn)
TARGET: prostaglandin E2 receptor
CLASS: 0 (no)

MOLECULE: Cc1ccc(S(=O)(=O)NC2C3CCC(C3)C2C/C=C\CCCC(=O)O)cc1 (racemic)
TARGET: prostaglandin E2 receptor
CLASS: 0 (no)

MOLECULE: O=C(O)CCC/C=C\[C@@H]1CCC[C@@H](NS(=O)(=O)c2ccc(Br)cc2)C1 (relative stereo)
TARGET: prostaglandin E2 receptor
CLASS: 0 (no)

MOLECULE: O=C(O)CCC/C=C\CC1CCCCC1NS(=O)(=O)c1ccc(Br)cc1 (stereo not drawn) [5 (f)]
TARGET: prostaglandin E2 receptor
CLASS: 0 (no)

MOLECULE: O=C(O)CCC/C=C\CC1CCCCC1NS(=O)(=O)c1ccc(Br)cc1 (stereo not drawn) [5 (e)]
TARGET: prostaglandin E2 receptor
CLASS: 1 (yes)

MOLECULE: CC1(C)[C@H]2C[C@H](NS(=O)(=O)CCC3CCCCC3)[C@@H](C/C=C\CCCC(=O)O)[C@@H]1C2
TARGET: prostaglandin E2 receptor
CLASS: 1 (yes)

MOLECULE: CC1(C)[C@H]2C[C@H](NS(=O)(=O)c3ccc(Br)cc3)[C@@H](C/C=C\CCCC(=O)O)[C@@H]1C2
TARGET: prostaglandin E2 receptor
CLASS: 0 (no)

MOLECULE: CC1(C)[C@H]2C[C@H](NS(=O)(=O)c3ccc4ccccc4c3)[C@@H](C/C=C\CCCC(=O)O)[C@@H]1C2
TARGET: prostaglandin E2 receptor
CLASS: 1 (yes)
